Target: T1, L-selectin (LS-Rg) (Homo sapiens, UniProt P14151 P14151:39-332)
T1 chain: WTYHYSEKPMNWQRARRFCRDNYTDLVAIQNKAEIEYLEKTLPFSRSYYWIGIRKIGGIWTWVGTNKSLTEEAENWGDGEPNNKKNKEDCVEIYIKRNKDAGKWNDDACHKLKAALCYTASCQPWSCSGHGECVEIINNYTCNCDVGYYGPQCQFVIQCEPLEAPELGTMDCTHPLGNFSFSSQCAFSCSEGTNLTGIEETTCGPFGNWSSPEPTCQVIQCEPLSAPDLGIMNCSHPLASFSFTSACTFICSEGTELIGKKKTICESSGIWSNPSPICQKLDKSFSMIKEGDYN
Assay: filter; room temp; 8.8 nM at 37 C
Conditions: tags: human IgG2 Fc fusion (provided by A. Varki); label: 32P; hairpin
Measurement Label: Kd
Please answer in the form of a number followed by its unit of measurement.

Incoming: Can you look up the measured Kd of 145 (ssDNA) DNA: CTACCTACGATCTGACTAGCCCCCGAAGAACATTTTACAAGGTGCTAAACGTAAAATCAGGCTTACTCTCATGTAGTTCC for me?
Outgoing: 0.92 nM
